test: chemical genetic growth profiling, strain panel (AID 1159580);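 further: tested at 20 µM; growth read once vehicle control cultures reached saturation at 30 °C; 1 = growth at the plate median or of vehicle wells; lower values mean less growth of the strain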; details: S. cerevisiae deletion strains, growth OD, locus YJR066W, strain TOR1, stronger effect = lower value
The campaign covered roughly 5,500 compounds. About 2,000 (36%) were called active. About 18% were inconclusive and are not listed. The list shows a part of the results.
Kindly supply the reported normalized growth values for the records listed here.
No unit in the answer, please; the number alone is enough.

QUERY: Please give the documented normalized growth of Cc1cc(-n2c(=O)[nH]c(=O)n(C)c2=O)ccc1Oc1ccc(SC(F)(F)F)cc1
RESULT: 0.75

QUERY: Please give the documented normalized growth of CC(C)=CCCC1(C)C=Cc2c(O)c3c(c(CC=C(C)C)c2O1)OC12C(=CC4CC1C(C)(C)OC2(C/C=C(\C)C(N)=O)C4=O)C3=O (stereo not given)
RESULT: 0.906

QUERY: Please give the documented normalized growth of C[C@@H]1CC[C@]2(C(=O)O)CC[C@]3(C)C(=CCC4[C@@]5(C)CC[C@H](O)C(C)(C)C5CC[C@]43C)C2[C@H]1C (stereo not given in full)
RESULT: 1.02

QUERY: Please give the documented normalized growth of C/C=C(/C)C(=O)O[C@@H]1[C@H](OC(C)=O)[C@@]2(CO)C(CC1(C)C)C1=CCC3[C@@]4(C)CC[C@H](O[C@@H]5O[C@H](C(=O)O)[C@@H](O[C@@H]6O[C@H](CO)[C@@H](O)[C@H](O)[C@H]6O)[C@H](O)[C@H]5O[C@@H]5O[C@H](CO)[C@@H](O)[C@H](O)[C@H]5O)[C@](C)(CO)C4CC[C@@]3(C)[C@]1(C)C[C@H]2O (stereo not given in full)
RESULT: 1.01

QUERY: Please give the documented normalized growth of CC(C)=CCCC1(C)C=Cc2c(O)c3c(c(CC=C(C)C)c2O1)OC12C(=CC4CC1C(C)(C)OC2(C/C=C(/C)C(=O)O)C4=O)C3=O (stereo not given)
RESULT: 0.825

----------
assay: chemical genetic growth profiling, strain panel (AID 1159580);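 further: tested at 20 µM; growth read once vehicle control cultures reached saturation at 30 °C; 1 = growth at the plate median or of vehicle wells; lower values mean less growth of the strain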; conditions: S. cerevisiae deletion strains, growth OD, locus YHR030C, strain SLT2, stronger effect = lower value
Out of some 5,500 compounds screened, about 2,000 (36%) were called active. Another 18% or so got no clear call; they are omitted. This is one part of the list.
measure: normalized growth
No unit in the answer, please; the number alone is enough.

QUERY: Please give the documented normalized growth of O=S(=O)(c1ccc(Cl)cc1)N(Cc1cccnc1)Cc1ccc(Cl)cc1Cl
RESULT: 0.465

QUERY: Please give the documented normalized growth of Cc1ccc2[nH]c3c(c2c1)CCCC3
RESULT: 0.377

QUERY: Please give the documented normalized growth of C/C=C(/C)C(=O)OC1CCC2(C)C3CCC4C5(O)CC(O)C6(O)C(CN7CC(C)CCC7C6(C)O)C5(O)CC42OC13O (centres undefined)
RESULT: 0.982

QUERY: Please give the documented normalized growth of FC(F)(F)c1cnc(N2CCN(C(=S)Nc3ccccc3)CC2)c(Cl)c1
RESULT: 1.05

QUERY: Please give the documented normalized growth of CC(C)(C)C(=O)N(Cc1cccnc1)Cc1ccc(Cl)cc1Cl
RESULT: 1.07

QUERY: Please give the documented normalized growth of CC1=NS(=O)(=O)c2cc(Cl)ccc2N1
RESULT: 0.96

QUERY: Please give the documented normalized growth of O=C(Nc1cc2cc([N+](=O)[O-])ccc2oc1=O)c1c(F)cccc1F
RESULT: 0.994

QUERY: Please give the documented normalized growth of COc1cc(C(=O)O[C@H]2CC[C@@]3(C)[C@@H]4CC[C@H]5[C@]6(O)C[C@H](O)[C@@]7(O)[C@@H](CN8C[C@@H](C)CC[C@H]8[C@@]7(C)O)[C@]6(O)C[C@@]53O[C@]24O)cc(OC)c1OC
RESULT: 1

QUERY: Please give the documented normalized growth of O=C(c1ccc(Cl)cc1)N(Cc1ccccc1)Cc1cccnc1
RESULT: 0.976
